Cited source for all entries: paper PMC7252619

# measurement target: NEK2 (Homo sapiens, UniProt P51955)
# Construct: purchased ReactionBiology
# Sequence (P51955 1-445): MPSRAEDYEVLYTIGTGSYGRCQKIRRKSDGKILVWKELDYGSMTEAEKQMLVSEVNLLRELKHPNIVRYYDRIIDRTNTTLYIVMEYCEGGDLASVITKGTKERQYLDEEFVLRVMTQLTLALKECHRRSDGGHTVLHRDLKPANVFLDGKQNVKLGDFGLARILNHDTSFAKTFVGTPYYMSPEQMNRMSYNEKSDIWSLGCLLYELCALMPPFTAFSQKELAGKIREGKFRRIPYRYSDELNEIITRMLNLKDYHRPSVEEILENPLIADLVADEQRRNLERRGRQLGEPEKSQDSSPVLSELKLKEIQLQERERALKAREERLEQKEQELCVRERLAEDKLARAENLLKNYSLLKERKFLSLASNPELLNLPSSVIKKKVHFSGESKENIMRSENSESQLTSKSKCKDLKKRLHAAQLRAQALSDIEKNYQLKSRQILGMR
# protocol text: Kinase activity test (ReactionBiology), % enzyme activity relative to DMSO;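 as to % Enzyme Activity (relative to DMSO controls), Data 2: FDA-approved drugs chosen by structure-based repositioning, each screened at 10 or 1 µM for kinase activity, expressed as percent of DMSO controls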
# Assay type: biochemical
# condition label: NEK2; 1 uM; replicate Data 2; read-out: % Enzyme Activity (relative to DMSO controls), Data 2
Task for the reader: assign each of the following molecules its reported remaining activity at 1 µM.
Numbers only, in %.

>>> reported_measurement("Nc1ncnc2c1ncn2[C@@H]1O[C@H](CO)[C@@H](O)[C@H]1O [Adenosine, reference compound]")
86.1
>>> reported_measurement("C[C@]12CC[C@@H]3c4ccc(O)cc4CC[C@H]3[C@@H]1CC[C@@H]2O [Estradiol, reference compound]")
88.5
>>> reported_measurement("Cc1cccc(C)c1OCC(=O)N[C@@H](Cc1ccccc1)[C@@H](O)C[C@H](Cc1ccccc1)NC(=O)[C@H](C(C)C)N1CCCNC1=O [Lopinavir, reference compound]")
115
>>> reported_measurement("NC(=O)c1cccnc1 [Niacinamide, reference compound]")
93.6
>>> reported_measurement("O=C(O)c1ccccc1O [Salicylic acid]")
88.3

Below is a list of molecules. For each, state its recorded remaining activity at 1 µM.
1. CN1CCN(CCCN2c3ccccc3Sc3ccc(Cl)cc32)CC1 [Prochlorperazine, reference compound]
2. Cc1nc(Nc2ncc(C(=O)Nc3c(C)cccc3Cl)s2)cc(N2CCN(CCO)CC2)n1 [Dasatinib, reference compound]
3. NC[C@H]1CC[C@H](C(=O)O)CC1 [Tranexamic acid]

72.5
81.2
84.2

###

Task for the reader: assign each of the following molecules its reported remaining activity at 10 µM.
# measurement target: DAPK1 (Homo sapiens, UniProt P53355)
# Construct: purchased ReactionBiology
# Sequence (P53355 whole entry): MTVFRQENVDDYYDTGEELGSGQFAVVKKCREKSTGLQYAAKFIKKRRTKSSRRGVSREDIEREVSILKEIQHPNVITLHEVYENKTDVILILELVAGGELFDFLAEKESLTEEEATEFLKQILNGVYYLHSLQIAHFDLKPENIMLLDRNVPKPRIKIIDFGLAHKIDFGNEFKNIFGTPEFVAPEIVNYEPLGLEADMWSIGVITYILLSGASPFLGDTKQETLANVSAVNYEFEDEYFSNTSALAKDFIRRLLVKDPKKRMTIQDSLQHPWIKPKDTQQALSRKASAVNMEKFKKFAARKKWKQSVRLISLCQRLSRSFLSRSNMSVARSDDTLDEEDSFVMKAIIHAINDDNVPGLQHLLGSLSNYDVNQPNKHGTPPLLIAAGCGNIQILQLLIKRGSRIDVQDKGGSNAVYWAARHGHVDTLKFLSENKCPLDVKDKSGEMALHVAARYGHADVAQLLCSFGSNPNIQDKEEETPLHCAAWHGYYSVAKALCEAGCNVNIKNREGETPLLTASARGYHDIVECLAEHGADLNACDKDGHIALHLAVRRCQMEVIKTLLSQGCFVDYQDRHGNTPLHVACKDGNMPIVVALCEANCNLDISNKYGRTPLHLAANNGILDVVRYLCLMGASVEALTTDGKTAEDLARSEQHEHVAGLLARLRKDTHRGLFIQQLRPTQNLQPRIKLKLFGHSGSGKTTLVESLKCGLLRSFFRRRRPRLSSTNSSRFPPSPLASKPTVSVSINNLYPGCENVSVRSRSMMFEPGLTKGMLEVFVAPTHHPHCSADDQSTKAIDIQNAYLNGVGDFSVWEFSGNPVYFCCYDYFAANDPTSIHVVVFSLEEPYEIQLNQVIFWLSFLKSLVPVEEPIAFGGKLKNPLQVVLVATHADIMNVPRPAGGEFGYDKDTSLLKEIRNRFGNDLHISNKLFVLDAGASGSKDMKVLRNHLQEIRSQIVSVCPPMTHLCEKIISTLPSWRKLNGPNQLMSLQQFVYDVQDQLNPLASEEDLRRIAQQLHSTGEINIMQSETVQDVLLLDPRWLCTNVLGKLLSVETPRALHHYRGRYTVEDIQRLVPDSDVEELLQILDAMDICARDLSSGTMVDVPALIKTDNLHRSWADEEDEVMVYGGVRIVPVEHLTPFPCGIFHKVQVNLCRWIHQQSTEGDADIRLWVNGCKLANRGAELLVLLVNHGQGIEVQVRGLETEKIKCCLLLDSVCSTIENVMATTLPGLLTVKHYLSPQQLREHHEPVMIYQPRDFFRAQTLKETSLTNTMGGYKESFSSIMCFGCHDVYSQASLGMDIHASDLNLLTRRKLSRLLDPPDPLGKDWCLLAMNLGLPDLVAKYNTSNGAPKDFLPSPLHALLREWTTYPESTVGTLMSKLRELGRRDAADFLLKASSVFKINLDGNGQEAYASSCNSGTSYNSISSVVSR
# protocol text: Kinase activity test (ReactionBiology), % enzyme activity relative to DMSO
# Format: biochemical
# condition label: DAPK1; compound 10μM; relative to DMSO controls; read-out: % Enzyme activity at 10μM
Give bare numbers, in %.

Answered cases to consult:
>>> reported_measurement("Cc1cccc(C)c1OCC(=O)N[C@@H](Cc1ccccc1)[C@@H](O)C[C@H](Cc1ccccc1)NC(=O)[C@H](C(C)C)N1CCCNC1=O [Lopinavir, reference compound]")
49.9
>>> reported_measurement("C[C@]12CC[C@@H]3c4ccc(O)cc4CC[C@H]3[C@@H]1CC[C@@H]2O [Estradiol, reference compound]")
69
>>> reported_measurement("C=CC(=O)N1CCC[C@@H](n2nc(-c3ccc(Oc4ccccc4)cc3)c3c(N)ncnc32)C1 [Ibrutinib, reference compound]")
23.7

Below is a list of molecules. For each, state its recorded remaining activity at 10 µM.
1. CC(C)(C)NC(=O)[C@@H]1C[C@@H]2CCCC[C@@H]2CN1C[C@@H](O)[C@H](Cc1ccccc1)NC(=O)[C@H](CC(N)=O)NC(=O)c1ccc2ccccc2n1 [Saquinavir, reference compound]
2. CN(C)CCOc1ccc(/C(=C(/CCCl)c2ccccc2)c2ccccc2)cc1 [Toremifene, reference compound]
3. CC(C)c1nc(CN(C)C(=O)N[C@H](C(=O)N[C@@H](Cc2ccccc2)C[C@H](O)[C@H](Cc2ccccc2)NC(=O)OCc2cncs2)C(C)C)cs1 [Ritonavir, reference compound]

27.8
14.8
38.5

###

# measurement target: NEK2 (Homo sapiens, UniProt P51955)
# Construct: purchased ReactionBiology
# Sequence (P51955 1-445): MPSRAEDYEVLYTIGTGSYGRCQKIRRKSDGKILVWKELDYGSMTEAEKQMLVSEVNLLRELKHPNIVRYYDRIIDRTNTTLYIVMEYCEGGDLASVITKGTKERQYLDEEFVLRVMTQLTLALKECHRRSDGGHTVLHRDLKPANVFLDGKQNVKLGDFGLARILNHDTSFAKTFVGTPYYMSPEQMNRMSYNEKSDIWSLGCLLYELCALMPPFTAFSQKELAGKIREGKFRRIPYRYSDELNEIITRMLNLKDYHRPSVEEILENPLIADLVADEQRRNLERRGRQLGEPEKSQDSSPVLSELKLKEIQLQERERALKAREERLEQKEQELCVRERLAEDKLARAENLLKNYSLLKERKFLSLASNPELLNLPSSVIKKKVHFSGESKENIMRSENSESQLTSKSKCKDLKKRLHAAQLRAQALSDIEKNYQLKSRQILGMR
# protocol text: Kinase activity test (ReactionBiology), % enzyme activity relative to DMSO
# Assay type: biochemical
# condition label: NEK2; 1 uM; replicate Data 1; read-out: % Enzyme Activity (relative to DMSO controls), Data 1
Task for the reader: assign each of the following compounds its reported remaining activity at 1 µM.
Give bare numbers, in %.

>>> reported_measurement("O=C(O)c1ccccc1O")
88.1
>>> reported_measurement("N[C@@H](Cc1cc(I)c(Oc2cc(I)c(O)c(I)c2)c(I)c1)C(=O)O [Thyroxine, reference compound]")
91.2

Could you now consider this next compound?
Per the record, N[C@@H](CC(=O)N1CCn2c(nnc2C(F)(F)F)C1)Cc1cc(F)c(F)cc1F has remaining activity at 1 µM of 89.3

###

Task for the reader: assign each of the following molecules its reported remaining activity at 1 µM.
# measurement target: EPHB4 (Homo sapiens, UniProt P54760)
# Construct: purchased ReactionBiology
# Sequence (P54760 16-987): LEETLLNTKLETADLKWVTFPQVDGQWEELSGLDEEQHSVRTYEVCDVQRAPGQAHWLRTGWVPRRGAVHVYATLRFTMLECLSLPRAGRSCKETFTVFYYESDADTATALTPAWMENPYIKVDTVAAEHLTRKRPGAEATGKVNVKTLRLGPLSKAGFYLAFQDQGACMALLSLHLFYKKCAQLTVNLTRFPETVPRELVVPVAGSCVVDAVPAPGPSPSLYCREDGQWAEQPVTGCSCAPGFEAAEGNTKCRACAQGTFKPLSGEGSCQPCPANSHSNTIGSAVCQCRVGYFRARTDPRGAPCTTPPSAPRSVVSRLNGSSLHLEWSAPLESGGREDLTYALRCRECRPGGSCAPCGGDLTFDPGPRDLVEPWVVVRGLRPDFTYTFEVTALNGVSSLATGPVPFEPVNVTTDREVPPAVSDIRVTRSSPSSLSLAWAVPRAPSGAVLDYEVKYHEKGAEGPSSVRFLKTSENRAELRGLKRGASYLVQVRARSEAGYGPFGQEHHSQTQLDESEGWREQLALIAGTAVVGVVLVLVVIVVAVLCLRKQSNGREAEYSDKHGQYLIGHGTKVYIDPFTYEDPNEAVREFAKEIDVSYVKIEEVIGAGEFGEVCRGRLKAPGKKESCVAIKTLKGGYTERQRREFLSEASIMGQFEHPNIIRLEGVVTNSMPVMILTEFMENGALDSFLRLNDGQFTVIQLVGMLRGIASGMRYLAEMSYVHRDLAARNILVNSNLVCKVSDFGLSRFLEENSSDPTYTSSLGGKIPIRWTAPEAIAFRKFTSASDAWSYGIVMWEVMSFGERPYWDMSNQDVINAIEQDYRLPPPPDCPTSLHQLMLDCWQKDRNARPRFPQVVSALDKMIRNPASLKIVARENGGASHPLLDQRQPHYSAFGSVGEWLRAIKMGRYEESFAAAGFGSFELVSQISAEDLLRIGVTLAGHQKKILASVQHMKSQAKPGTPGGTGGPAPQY
# protocol text: Kinase activity test (ReactionBiology), % enzyme activity relative to DMSO;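 as to % Enzyme Activity (relative to DMSO controls), Average: EPHB4 was one of ten selected kinases in the screening panel, with enzyme activity expressed as a percentage of DMSO controls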
# Format: biochemical
# condition label: EPHB4; 1 uM; Average; read-out: % Enzyme Activity (relative to DMSO controls), Average
One number for each entry, in %.

Answered cases to consult:
>>> reported_measurement("NCCCCCC(=O)O")
103
>>> reported_measurement("C[C@]12CC[C@@H]3c4ccc(O)cc4CC[C@H]3[C@@H]1CC[C@@H]2O [Estradiol, reference compound]")
100
>>> reported_measurement("NC(=O)c1cccnc1 [Niacinamide, reference compound]")
69.3
>>> reported_measurement("CC(=O)O[C@H]1C[C@@]2(C)[C@@H](C[C@@H](O)[C@H]3[C@@]4(C)CC[C@@H](O)[C@@H](C)[C@@H]4CC[C@@]32C)/C1=C(\\CCC=C(C)C)C(=O)O")
101

Could you now consider this next molecule?
The reported remaining activity at 1 µM value, EPHB4 (Homo sapiens, UniProt P54760), for Nc1ncnc2c1ncn2[C@@H]1O[C@H](CO)[C@@H](O)[C@H]1O [Adenosine, reference compound] reads 101
